Reported binding signal (PBM E-score (-0.5 to 0.5)) is given for each of the following sequences.
EXPERIMENTAL_SYSTEM: K11D2.4 (K11D2.4) (Caenorhabditis elegans)
Sequence: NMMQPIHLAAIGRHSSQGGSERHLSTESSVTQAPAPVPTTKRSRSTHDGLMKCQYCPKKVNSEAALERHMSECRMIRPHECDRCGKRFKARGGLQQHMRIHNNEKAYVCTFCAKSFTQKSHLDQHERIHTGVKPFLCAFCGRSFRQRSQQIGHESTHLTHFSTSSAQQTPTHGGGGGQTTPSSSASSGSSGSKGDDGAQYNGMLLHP
// return just the number, without any unit appended

The following sequences have reported results that may help.
SEQ_STRING	RECORDED_RESULT
AAAAAAAT (double strand) [8-mer AAAAAAAT]	0.498
TAAAAAAA (double strand) [8-mer TAAAAAAA]	0.498
GAAAAAAA (double strand) [8-mer GAAAAAAA]	0.498

Read the next record carefully.
input: binding signal (PBM E-score (-0.5 to 0.5)) for ACAAAAAA (double strand) [8-mer ACAAAAAA] ?
output: 0.494

---

EXPERIMENTAL_SYSTEM: hlh-16 (DY3.3) (Caenorhabditis elegans) (UniProt O45320)
Sequence: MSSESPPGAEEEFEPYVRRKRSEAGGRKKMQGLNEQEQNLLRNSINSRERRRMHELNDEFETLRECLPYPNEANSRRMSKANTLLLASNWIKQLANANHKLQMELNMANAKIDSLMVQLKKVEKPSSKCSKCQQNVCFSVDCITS
In this section, each of the sequences is paired with its reported binding signal (PBM E-score (-0.5 to 0.5)).
Respond numerically, and do not add a unit to the figure.

Some sequences with recorded binding signal (PBM E-score (-0.5 to 0.5)):
SEQ_STRING	RECORDED_RESULT
CAATATGG (double strand) [8-mer CAATATGG]	0.486
ACAATATG (double strand) [8-mer ACAATATG]	0.471
ACCATATG (double strand) [8-mer ACCATATG]	0.478
CCATATGG (double strand) [8-mer CCATATGG]	0.452
AATATGGT (double strand) [8-mer AATATGGT]	0.452

input: Entry CAATATTG (double strand) [8-mer CAATATTG] , system hlh-16 (DY3.3) (Caenorhabditis elegans) (UniProt O45320): what binding signal (PBM E-score (-0.5 to 0.5)) was measured?
output: 0.495

---

EXPERIMENTAL_SYSTEM: mab-23 (C32C4.5) (Caenorhabditis elegans) (UniProt G5ECK3)
Sequence: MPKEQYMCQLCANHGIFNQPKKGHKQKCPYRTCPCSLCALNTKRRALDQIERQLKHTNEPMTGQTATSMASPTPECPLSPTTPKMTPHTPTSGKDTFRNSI
A collection of sequences and their measured binding signal (PBM E-score (-0.5 to 0.5))

Example entries and their recorded answers appear below.
SEQ_STRING	EXPERIMENTAL_SYSTEM	RECORDED_RESULT
AATTTTTA (double strand) [8-mer AATTTTTA]	mab-23 (C32C4.5) (Caenorhabditis elegans) (UniProt G5ECK3)	0.453
AAAATTTC (double strand) [8-mer AAAATTTC]	mab-23 (C32C4.5) (Caenorhabditis elegans) (UniProt G5ECK3)	0.47

input: Would you kindly share the measured binding signal (PBM E-score (-0.5 to 0.5)) for AAATATTA (double strand) [8-mer AAATATTA] ?
output: 0.459

input: Recorded binding signal (PBM E-score (-0.5 to 0.5)) of AAAAATTT (double strand) [8-mer AAAAATTT] , please.
output: 0.478

input: I have this sequence here, AAATTATT (double strand) [8-mer AAATTATT] , and I need its recorded binding signal (PBM E-score (-0.5 to 0.5)).
output: 0.454

input: Tell me the measured binding signal (PBM E-score (-0.5 to 0.5)) of AAAATTTT (double strand) [8-mer AAAATTTT] , please.
output: 0.469

input: Dear colleague, I am looking for the recorded binding signal (PBM E-score (-0.5 to 0.5)) of the following sequence: AAAATATT (double strand) [8-mer AAAATATT]
output: 0.469
